assay_target: Peroxisome proliferator-activated receptor gamma (Homo sapiens, UniProt P37231)
Sequence (P37231 whole entry): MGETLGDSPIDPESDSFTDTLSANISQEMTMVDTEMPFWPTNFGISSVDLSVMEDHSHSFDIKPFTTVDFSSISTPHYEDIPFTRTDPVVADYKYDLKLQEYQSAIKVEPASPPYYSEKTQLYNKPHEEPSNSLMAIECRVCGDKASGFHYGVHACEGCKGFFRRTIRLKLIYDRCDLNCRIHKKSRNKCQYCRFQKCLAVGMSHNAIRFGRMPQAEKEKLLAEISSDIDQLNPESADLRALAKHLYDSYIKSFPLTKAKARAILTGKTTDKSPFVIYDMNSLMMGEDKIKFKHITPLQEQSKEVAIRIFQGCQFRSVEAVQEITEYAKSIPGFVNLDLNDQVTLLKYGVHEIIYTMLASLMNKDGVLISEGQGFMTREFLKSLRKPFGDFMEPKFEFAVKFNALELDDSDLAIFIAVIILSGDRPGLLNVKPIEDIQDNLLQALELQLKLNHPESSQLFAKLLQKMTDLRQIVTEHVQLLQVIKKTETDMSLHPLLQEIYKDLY
assay_explanation: Transactivation of GAL4-fused PPARgamma ligand binding domain transfected in human HepG2 cells by luciferase reporter gene assay
readout_kind: EC50 (µM)

A. CCC1=C[C@@](CC)(C[C@H](/C=C/C(C)=O)CC)OC1=O
B. CCC1=C[C@@](CC)(C[C@H](/C=C/C(C)=O)CC)O/C1=C\C(=O)OC
-- ask Of A and B , whose reported EC50 is numerically smaller? Refer to your chosen item by its label in the answer.
-- reply A
(A: 2 µM, B: 5 µM)

###

assay_target: Peroxisome proliferator-activated receptor gamma (Homo sapiens)
Sequence (whole entry): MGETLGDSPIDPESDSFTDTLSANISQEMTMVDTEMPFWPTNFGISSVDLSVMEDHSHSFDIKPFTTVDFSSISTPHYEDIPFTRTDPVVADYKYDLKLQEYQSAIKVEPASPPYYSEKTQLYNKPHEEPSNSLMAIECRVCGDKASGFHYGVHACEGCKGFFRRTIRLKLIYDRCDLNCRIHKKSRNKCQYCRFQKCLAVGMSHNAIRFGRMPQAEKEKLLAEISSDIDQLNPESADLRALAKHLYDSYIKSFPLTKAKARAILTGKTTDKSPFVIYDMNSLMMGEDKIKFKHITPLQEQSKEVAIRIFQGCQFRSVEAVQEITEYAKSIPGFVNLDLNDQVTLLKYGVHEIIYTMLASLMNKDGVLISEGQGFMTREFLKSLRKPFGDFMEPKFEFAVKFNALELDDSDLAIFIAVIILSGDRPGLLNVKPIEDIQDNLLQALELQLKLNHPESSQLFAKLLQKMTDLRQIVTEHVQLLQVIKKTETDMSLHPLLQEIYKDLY
assay_explanation: Transactivation of GAL4-fused PPARgamma ligand binding domain transfected in human HepG2 cells at 10 uM after 18 hrs by luciferase reporter gene assay
Type: cell-based
The source made the active and inactive calls. No cut-off for these calls is given here.
I would appreciate it if you answered using one of these outcomes: Yes (active), No (inactive)

Previously resolved entries follow.
CCC1=C[C@@](CC)(C[C@H](/C=C/C(C)=O)CC)OC1=O
Yes
CCC1=C[C@@](CC)(C[C@@H](CC)CCC(C)=O)OC1=O
No
CCC1=C[C@@](CC)(C[C@H](/C=C/C(C)=O)CC)O/C1=C\C(=O)OC
Yes
CCC1=C[C@@](CC)(C[C@@H](CC)CCC(C)=O)O/C1=C\C(=O)OC
No

Now look at this one.
-- ask Kindly provide the recorded test outcome for the following compound: CCC1=C[C@@](CC)(C[C@H](/C=C/[C@H](C)O)CC)O/C1=C\C(=O)OC
-- reply Yes
